Sourced from patent US20250250312A1

subjectOfTest: receptor binding domain (RBD) of SARS-CoV-2 wildtype (2019-nCoV) (SARS-CoV-2), P0DTC2
measuredEndpoint: Kd (µM)
One number for each entry, in µM.

Form field: reported Kd of EEQAKTFKDKFDHEAEDLFYQSSGLGKGDFR (modifications not checked) [p6(K)8(D)12]
5
